# credit: patent US20240076389A1

Target: T1, human AXL expressed on the cell surface of tumor cell lines (human, UniProt P30530 26-894)
T1 sequence (looked up): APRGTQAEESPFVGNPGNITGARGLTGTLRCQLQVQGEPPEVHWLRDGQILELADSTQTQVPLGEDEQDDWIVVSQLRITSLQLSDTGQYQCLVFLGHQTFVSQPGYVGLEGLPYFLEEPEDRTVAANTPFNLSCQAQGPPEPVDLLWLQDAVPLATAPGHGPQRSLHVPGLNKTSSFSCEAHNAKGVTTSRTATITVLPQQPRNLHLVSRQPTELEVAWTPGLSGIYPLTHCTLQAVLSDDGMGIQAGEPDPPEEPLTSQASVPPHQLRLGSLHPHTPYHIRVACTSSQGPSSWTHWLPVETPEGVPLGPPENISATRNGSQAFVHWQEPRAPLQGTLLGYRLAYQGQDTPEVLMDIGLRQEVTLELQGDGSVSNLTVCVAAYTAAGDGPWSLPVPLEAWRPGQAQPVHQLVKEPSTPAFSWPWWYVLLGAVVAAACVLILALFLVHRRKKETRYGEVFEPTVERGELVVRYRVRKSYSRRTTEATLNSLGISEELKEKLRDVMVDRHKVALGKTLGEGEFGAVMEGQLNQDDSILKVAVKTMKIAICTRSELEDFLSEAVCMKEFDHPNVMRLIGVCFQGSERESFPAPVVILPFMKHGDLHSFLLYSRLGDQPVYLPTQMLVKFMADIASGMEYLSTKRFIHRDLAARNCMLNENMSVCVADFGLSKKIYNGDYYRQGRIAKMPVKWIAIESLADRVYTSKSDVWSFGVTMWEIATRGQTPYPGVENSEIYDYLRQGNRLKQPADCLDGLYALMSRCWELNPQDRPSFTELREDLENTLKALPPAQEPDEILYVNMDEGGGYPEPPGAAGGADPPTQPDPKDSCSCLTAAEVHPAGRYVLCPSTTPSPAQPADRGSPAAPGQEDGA
Test: cell-based or functional assay
recorded_metric: IC50 of growth inhibition of NCI-H292 cells, +Gas6 (2 µg/mL) (nM)
Answers are plain numbers, in nM.

Below, 2 binders whose answers are already recorded.
• hFc-F111-5E9-DM1 (antibody, human IgG1, kappa, V domains shown, DM1 through SMCC linker on lysine residues; sites not given) VH: QIQLVQSGPELKKPGETVKISCKASGYTFTKYGMNWVKQAPGKGLKWMGWINTYTGEPTYADDFKGRFAFSLETSASTAYLQINNLTTEDMVTYFCAKGGYYSNPIYPMDYWGQGTSVTVSS VL: DIQMTQTTSSLSASLGDRVTISCRASQDINNYLNWYQQKPDGTVKLLIYYISRLHSGVPSRFSGSGSGTDYSLTISNLELEDVATYFCQQGNTLPFTFGSGTKLEIKR = 0.074
• hFc-F107-10G1-DM1 (antibody, human IgG1, kappa, V domains shown, DM1 through SMCC linker on lysine residues; sites not given) VH: EVNLVESGGGVVKPGASLKLSCEASGFTFSNYGMSWVRQTSDKRLEWVASISGGGGRTYYLDNVKGRFIISRENAKNTLYLQMSSLKSEDTALFYCARGARASYFAMDYWGQGSSVTVSS VL: VIVMTQSHKFMSTSVGDRVSITCKASQDVTTAVAWYQQKPGQSPKLLIYWASTRHTGVPDRFTGSGSGTDYSLTISNVQTEDLAFYYCQQHFTTPLTFGAGTKLELKR = 0.46

Then this binder:
Kindly indicate its recorded IC50 of growth inhibition of NCI-H292 cells, +Gas6 (2 µg/mL). Item: mIgG-F149-4G4-DM1 (antibody, V domains shown, DM1 through SMCC linker on lysine residues of the antibody; sites not given) VH: QIQLVQSGPELKKPGETVKISCKTSGYTFTYYGINWVKQAPGKGLEWMGWINTYLGEPTYADDFKGRFAFSLETSASTAYLQINNLRDEDMATYFCTRGTMSYSFDYWGQGTALTVSS VL: QNVLTQSPAIMSASPGEEVTMTCRASSSVSSSYLHWYQQKSGASPKLWIYSTSKLASGVPARFSGSGSGTSYSLTISSVEAEDAATYYCHQYSGDPLTFGSGTKLEVK 0.013
